Each entry below carries its reported pIC50.
Target Of Assay: P70S6K (T412E mutant) (Homo sapiens (Human), UniProt P23443, T412E)
Sequence (P23443 whole entry T412E): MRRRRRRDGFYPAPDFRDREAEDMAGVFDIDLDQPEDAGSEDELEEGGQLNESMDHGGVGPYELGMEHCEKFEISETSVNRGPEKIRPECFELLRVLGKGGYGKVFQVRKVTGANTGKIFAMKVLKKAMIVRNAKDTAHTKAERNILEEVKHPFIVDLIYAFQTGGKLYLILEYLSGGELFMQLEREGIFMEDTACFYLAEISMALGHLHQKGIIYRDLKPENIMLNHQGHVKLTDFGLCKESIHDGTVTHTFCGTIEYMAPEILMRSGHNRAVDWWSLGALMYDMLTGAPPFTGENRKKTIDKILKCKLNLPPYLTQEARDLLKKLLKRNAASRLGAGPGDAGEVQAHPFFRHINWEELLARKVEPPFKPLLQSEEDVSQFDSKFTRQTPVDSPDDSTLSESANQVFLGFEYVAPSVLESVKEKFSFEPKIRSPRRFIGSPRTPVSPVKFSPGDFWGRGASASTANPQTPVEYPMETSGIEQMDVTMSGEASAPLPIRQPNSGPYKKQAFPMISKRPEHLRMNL
Protocol Description: P70S6K enzyme assay
Test Parameters: 3 nM P70S6K T412E mutant, 24 μM ATP, 1 μM FITC-AHA-AKRRRLSSLRA-OH substrate peptide, 90 min at 25° C.
Method: The IC50 values reported for the compounds in the Experimental section were derived from the following protocol for the p70S6K enzyme assay. P70S6K inhibitor compounds were diluted and plated in 96 well plates. […] The proportion of substrate and product (phosphorylated) peptide was analysed on a Caliper Life Sciences Lab Chip 3000, using a pressure of −1.4 psi, and upstream and downstream voltages of −3000 and −700 respectively. […]
pIC50: −log10 of the molar value.

{"Molecule": "Nc1ncnc(N2CCN(C(CN3CCCCC3)c3ccc(F)cc3)CC2)c1-c1ccc(F)cc1 (centres unmarked)", "pIC50": 7.62}
{"Molecule": "CC[C@H](NC(=O)C1(N)CCN(c2ncnc(N)c2Cl)CC1)c1ccc(Cl)cc1", "pIC50": 6.72}
{"Molecule": "Nc1ncnc(N2CCC(N)(C(=O)N[C@@H](CCO)c3ccc(Cl)cc3)CC2)c1Cl", "pIC50": 6.60}
{"Molecule": "Nc1ncnc(N2CCC(Cc3ccc(Cl)cc3)CC2)c1Br", "pIC50": 6.20}
{"Molecule": "COc1c(N)ncnc1N1CCN(C(CN)c2ccc(C(F)(F)F)cc2)CC1 (centres unmarked)", "pIC50": 7.40}
{"Molecule": "Nc1ncnc(N2CCN([C@@H](CN3CCC3)c3ccc4c(c3)OCCO4)CC2)c1-c1cn[nH]c1", "pIC50": 5.28}
{"Molecule": "Nc1ncnc(N2CCN([C@@H](CN3CCC3)c3ccc4c(c3)OCCO4)CC2)c1-c1ccc(F)cc1", "pIC50": 5.80}
{"Molecule": "NCC(c1ccc(C(F)(F)F)cc1)C1CCN(c2ncnc(N)c2-c2ccc(F)cc2)CC1 (centres unmarked)", "pIC50": 8.48}

Taken from patent US9321760B2.
